- measurement-notes: Hydrolysis of Pertuzumab conjugated samples obtained using different small molecule compounds, hydrolysis percentage by Native MS
- Format: physicochemical
- assay-conditions: hydrolysis system A: 50 mM sodium dihydrogen phosphate-disodium hydrogen phosphate buffer, pH 7.8; 1 h
measurement-name: 1 h hydrolysis percentage (%)
Answers are plain numbers, in %.

Briefly, 1 h hydrolysis percentage measured for CCC(C)[C@@H]([C@@H](CC(=O)N1CCC[C@H]1[C@H](OC)[C@@H](C)C(=O)N[C@H](C)[C@@H](O)c1ccccc1)OC)N(C)C(=O)[C@@H](NC(=O)[C@H](C(C)C)N(C)C(=O)OCc1ccc(NC(=O)[C@H](CCCNC(N)=O)NC(=O)[C@@H](NC(=O)COCCOCCOCCOc2c(F)cc(N3C(=O)C(Sc4ccc(C(=O)N5CCOCC5)cc4)=C(Sc4ccc(C(=O)N5CCOCC5)cc4)C3=O)cc2F)C(C)C)cc1)C(C)C (stereo partly shown) [C-3] : 90.31

----------
- measurement-notes: Hydrolysis of Pertuzumab conjugated samples obtained using different small molecule compounds, hydrolysis percentage by Native MS
- Format: physicochemical
- assay-conditions: hydrolysis system D: 50 mM tromethamine-hydrochloric acid buffer, pH 7.8; 1 h
measurement-name: 1 h hydrolysis percentage (%)
Give bare numbers, in %.

[[record]]
molecule = "CCC(C)[C@@H]([C@@H](CC(=O)N1CCC[C@H]1[C@H](OC)[C@@H](C)C(=O)N[C@H](C)[C@@H](O)c1ccccc1)OC)N(C)C(=O)[C@@H](NC(=O)[C@H](C(C)C)N(C)C(=O)OCc1ccc(NC(=O)[C@H](CCCNC(N)=O)NC(=O)[C@@H](NC(=O)COCCOCCOCCOc2ccc(N3C(=O)C(Sc4ccc(C(=O)N5CCOCC5)cc4)=C(Sc4ccc(C(=O)N5CCOCC5)cc4)C3=O)cc2)C(C)C)cc1)C(C)C (some centres unmarked) [C-1]"
numeric_readout = 84.78


--- query ---
Field 1 h hydrolysis percentage (entry CCC(C)[C@@H]([C@@H](CC(=O)N1CCC[C@H]1[C@H](OC)[C@@H](C)C(=O)N[C@H](C)[C@@H](O)c1ccccc1)OC)N(C)C(=O)[C@@H](NC(=O)[C@H](C(C)C)N(C)C(=O)OCc1ccc(NC(=O)[C@H](CCCNC(N)=O)NC(=O)[C@@H](NC(=O)COCCOCCOCCOc2ccc(N3C(=O)C(Sc4ccccc4)=C(Sc4ccccc4)C3=O)c(C(F)(F)F)c2)C(C)C)cc1)C(C)C (some centres unmarked) [A-4] ) reads 14.56

----------
Could you please report measured 1 h hydrolysis percentage for the items listed next?
- measurement-notes: Hydrolysis of Pertuzumab conjugated samples obtained using different small molecule compounds, hydrolysis percentage by Native MS
- Assay type: physicochemical
- assay-conditions: hydrolysis system D: 50 mM tromethamine-hydrochloric acid buffer, pH 7.8; 1 h
Answers are plain numbers, in %.

Some solved cases for reference:
[[record]]
molecule = "CCC(C)[C@@H]([C@@H](CC(=O)N1CCC[C@H]1[C@H](OC)[C@@H](C)C(=O)N[C@H](C)[C@@H](O)c1ccccc1)OC)N(C)C(=O)[C@@H](NC(=O)[C@H](C(C)C)N(C)C(=O)OCc1ccc(NC(=O)[C@H](CCCNC(N)=O)NC(=O)[C@@H](NC(=O)COCCOCCOCCOc2c(F)cc(N3C(=O)C(Sc4ccc(C(=O)N5CCOCC5)cc4)=C(Sc4ccc(C(=O)N5CCOCC5)cc4)C3=O)cc2F)C(C)C)cc1)C(C)C (stereo partly drawn)"
numeric_readout = 88.36

[[record]]
molecule = "CCC(C)[C@@H]([C@@H](CC(=O)N1CCC[C@H]1[C@H](OC)[C@@H](C)C(=O)N[C@H](C)[C@@H](O)c1ccccc1)OC)N(C)C(=O)[C@@H](NC(=O)[C@H](C(C)C)N(C)C(=O)OCc1ccc(NC(=O)[C@H](CCCNC(N)=O)NC(=O)[C@@H](NC(=O)COCCOCCOCCOc2ccc(N3C(=O)C(Sc4ccc(C(=O)NC)cc4)=C(Sc4ccc(C(=O)NC)cc4)C3=O)cc2OC)C(C)C)cc1)C(C)C (stereo partly drawn)"
numeric_readout = 16.62


Query molecule follows.
So, CCC(C)[C@@H]([C@@H](CC(=O)N1CCC[C@H]1[C@H](OC)[C@@H](C)C(=O)N[C@H](C)[C@@H](O)c1ccccc1)OC)N(C)C(=O)[C@@H](NC(=O)[C@H](C(C)C)N(C)C(=O)OCc1ccc(NC(=O)[C@H](CCCNC(N)=O)NC(=O)[C@@H](NC(=O)COCCOCCOCCOc2c(F)cc(N3C(=O)C(Sc4ccccc4)=C(Sc4ccccc4)C3=O)cc2F)C(C)C)cc1)C(C)C (stereo partly drawn) ? Its 1 h hydrolysis percentage was 90.33

----------
- measurement-notes: Hydrolysis of Pertuzumab conjugated samples obtained using different small molecule compounds, hydrolysis percentage by Native MS
- Type: physicochemical
- assay-conditions: hydrolysis system C: 50 mM potassium dihydrogen phosphate-dipotassium hydrogen phosphate buffer, pH 7.8; 3 h
measurement-name: 3 h hydrolysis percentage (%)
Numbers only, in %.

[[record]]
compound = "CCC(C)[C@@H]([C@@H](CC(=O)N1CCC[C@H]1[C@H](OC)[C@@H](C)C(=O)N[C@H](C)[C@@H](O)c1ccccc1)OC)N(C)C(=O)[C@@H](NC(=O)[C@H](C(C)C)N(C)C(=O)OCc1ccc(NC(=O)[C@H](CCCNC(N)=O)NC(=O)[C@@H](NC(=O)COCCOCCOCCOc2c(F)cc(N3C(=O)C(Sc4ccc(C(=O)N5CCOCC5)cc4)=C(Sc4ccc(C(=O)N5CCOCC5)cc4)C3=O)cc2F)C(C)C)cc1)C(C)C (some centres unmarked) [C-3]"
measurement_name = "3 h hydrolysis percentage"
numeric_readout = 99.70


Please examine the following record next.
3 h hydrolysis percentage in this record for CCC(C)[C@@H]([C@@H](CC(=O)N1CCC[C@H]1[C@H](OC)[C@@H](C)C(=O)N[C@H](C)[C@@H](O)c1ccccc1)OC)N(C)C(=O)[C@@H](NC(=O)[C@H](C(C)C)N(C)C(=O)OCc1ccc(NC(=O)[C@H](CCCNC(N)=O)NC(=O)[C@@H](NC(=O)COCCOCCOCCOc2ccc(N3C(=O)C(Sc4ccccc4)=C(Sc4ccccc4)C3=O)c(C(F)(F)F)c2)C(C)C)cc1)C(C)C (some centres unmarked) [A-4] : 26.13

----------
- measurement-notes: Hydrolysis of Pertuzumab conjugated samples obtained using different small molecule compounds, hydrolysis percentage by Native MS
- Assay type: physicochemical
- assay-conditions: Pertuzumab conjugate; 50 mM sodium dihydrogen phosphate-disodium hydrogen phosphate buffer, pH 7.8, 35° C., 3 h; Native MS
measurement-name: 3 h hydrolysis percentage
Write the numeric value and append its unit.

Known results for compounds:
[[record]]
compound = "CCC(C)[C@@H]([C@@H](CC(=O)N1CCC[C@H]1[C@H](OC)[C@@H](C)C(=O)N[C@H](C)[C@@H](O)c1ccccc1)OC)N(C)C(=O)[C@@H](NC(=O)[C@H](C(C)C)N(C)C(=O)OCc1ccc(NC(=O)[C@H](CCCNC(N)=O)NC(=O)[C@@H](NC(=O)COCCOCCOCCOc2ccc(N3C(=O)C(Sc4ccc(C(=O)NC)cc4)=C(Sc4ccc(C(=O)NC)cc4)C3=O)cc2OC)C(C)C)cc1)C(C)C (stereo partly drawn) [B-7]"
result = "34.10%"

[[record]]
compound = "CCC(C)[C@@H]([C@@H](CC(=O)N1CCC[C@H]1[C@H](OC)[C@@H](C)C(=O)N[C@H](C)[C@@H](O)c1ccccc1)OC)N(C)C(=O)[C@@H](NC(=O)[C@H](C(C)C)N(C)C(=O)OCc1ccc(NC(=O)[C@H](CCCNC(N)=O)NC(=O)[C@@H](NC(=O)COCCOCCOCCOc2ccc(N3C(=O)C(Sc4ccccc4)=C(Sc4ccccc4)C3=O)cn2)C(C)C)cc1)C(C)C (stereo partly drawn) [A-5]"
result = "7.29%"


Turning to the following compound.
Record CCC(C)[C@@H]([C@@H](CC(=O)N1CCC[C@H]1[C@H](OC)[C@@H](C)C(=O)N[C@H](C)[C@@H](O)c1ccccc1)OC)N(C)C(=O)[C@@H](NC(=O)[C@H](C(C)C)N(C)C(=O)OCc1ccc(NC(=O)[C@H](CCCNC(N)=O)NC(=O)[C@@H](NC(=O)COCCOCCOCCOc2c(F)cc(N3C(=O)C(Sc4ccc(C(=O)N5CCOCC5)cc4)=C(Sc4ccc(C(=O)N5CCOCC5)cc4)C3=O)cc2F)C(C)C)cc1)C(C)C (stereo partly drawn) [C-3] , field 3 h hydrolysis percentage: 98.31%

----------
For each entry below, report its 18 h hydrolysis percentage value.
- measurement-notes: Hydrolysis of Pertuzumab conjugated samples obtained using different small molecule compounds, hydrolysis percentage by Native MS
- Assay type: physicochemical
- assay-conditions: Pertuzumab conjugate; 50 mM PB pH 7.8, 35° C., 18 h; Native MS
*1 amine or outer side, *2 acyl side, *3 side chain or, on linkers, in order; H or OH if unused. Where a SMILES comes first, the peptide text is derived from it. [ ]: non-standard residue; d: D form. The star is where a group is joined. ξ: configuration not given here. Dil(5ξ) = CCC(C)[C@@H]([C@@H](CC(=O)[*:2])OC)N(C)[*:1]; Dolaproine = CO[C@@H]([C@@H]1CCCN1)[C@@H](C)C(=O)O; Hexanoyl(6-maleimido) = O=C1C=CC(=O)N1CCCCCC(=O)*; PABC = O=C(OCc1ccc(N[*:1])cc1)[*:2]; X1 = C[C@@H](N*)[C@@H](O)c1ccccc1; Cit = NC(=O)NCCC[C@H](N)C(=O)O; NMeV = CN[C@H](C(=O)O)C(C)C
One number for each entry, in %.

Example results:
[[record]]
compound = "CCC(C)[C@@H]([C@@H](CC(=O)N1CCC[C@H]1[C@H](OC)[C@@H](C)C(=O)N[C@H](C)[C@@H](O)c1ccccc1)OC)N(C)C(=O)[C@@H](NC(=O)[C@H](C(C)C)N(C)C(=O)OCc1ccc(NC(=O)[C@H](CCCNC(N)=O)NC(=O)[C@@H](NC(=O)COCCOCCOCCOc2ccc(N3C(=O)C(Sc4ccccc4)=C(Sc4ccccc4)C3=O)cn2)C(C)C)cc1)C(C)C (stereo partly shown) [A-5]"
measurement_name = "18 h hydrolysis percentage"
numeric_readout = 28.81

[[record]]
compound = "CCC(C)[C@@H]([C@@H](CC(=O)N1CCC[C@H]1[C@H](OC)[C@@H](C)C(=O)N[C@H](C)[C@@H](O)c1ccccc1)OC)N(C)C(=O)[C@@H](NC(=O)[C@H](C(C)C)N(C)C(=O)OCc1ccc(NC(=O)[C@H](CCCNC(N)=O)NC(=O)[C@@H](NC(=O)COCCOCCOCCOc2ccc(N3C(=O)C(Sc4ccc(C(=O)NC)cc4)=C(Sc4ccc(C(=O)NC)cc4)C3=O)cc2OC)C(C)C)cc1)C(C)C (stereo partly shown) [B-7]"
measurement_name = "18 h hydrolysis percentage"
numeric_readout = 76.15

[[record]]
compound = "CCC(C)[C@@H]([C@@H](CC(=O)N1CCC[C@H]1[C@H](OC)[C@@H](C)C(=O)N[C@H](C)[C@@H](O)c1ccccc1)OC)N(C)C(=O)[C@@H](NC(=O)[C@H](C(C)C)N(C)C(=O)OCc1ccc(NC(=O)[C@H](CCCNC(N)=O)NC(=O)[C@@H](NC(=O)CCCCCN2C(=O)C=CC2=O)C(C)C)cc1)C(C)C (stereo partly drawn) [D-1] ({Hexanoyl(6-maleimido)}-V[Cit][PABC][NMeV]V[Dil(5ξ)][Dolaproine]-X1)"
measurement_name = "18 h hydrolysis percentage"
numeric_readout = 21.44


Turning now to a further record.
Measured 18 h hydrolysis percentage of CCC(C)[C@@H]([C@@H](CC(=O)N1CCC[C@H]1[C@H](OC)[C@@H](C)C(=O)N[C@H](C)[C@@H](O)c1ccccc1)OC)N(C)C(=O)[C@@H](NC(=O)[C@H](C(C)C)N(C)C(=O)OCc1ccc(NC(=O)[C@H](CCCNC(N)=O)NC(=O)[C@@H](NC(=O)COCCOCCOCCOc2ccc(N3C(=O)C(Sc4ccccc4)=C(Sc4ccccc4)C3=O)c(C(F)(F)F)c2)C(C)C)cc1)C(C)C (stereo partly shown) [A-4] : 53.46
